Study Target: protein farnesyltransferase (Rattus norvegicus, UniProt Q02293+Q04631)
Construct: Rat brain protein farnesyltransferase activity is measured; from tissue; host or cells: rat brain; purified according to Reiss et al., Cell 62:81-88 (1990), steps one through three
Test Method Notes: in vitro inhibition of protein farnesyltransferase (scintillation proximity assay, biotin-K Ras B fragment)
Type: biochemical
Run Parameters: at 1 × 10^-8 M
Mark true (1) for reported % inhibition of farnesyltransferase of 70% or greater; mark false (0) for anything smaller.

Illustrative cases are given below, each with its answer.
- Compound: "CSCC[C@H](NC(=O)c1ccc(/C=C/c2ccc(Oc3cccc(Cl)c3)cc2)cc1-c1ccccc1C)C(=O)O [Example 858]"
  Label Class: "false (0)"
- Compound: "CSCC[C@H](NC(=O)c1ccc(COCc2ccccc2C(C)C)cc1-c1ccccc1C)C(=O)[O-].[Li+] [Example 938]"
  Label Class: "false (0)"
- Compound: "CCCCC(CCCC)OCc1ccc(C(=O)N[C@@H](CCSC)C(=O)[O-])c(-c2ccccc2C)c1.[Li+] [Example 942]"
  Label Class: "false (0)"
- Compound: "CSCC[C@H](NC(=O)c1ccc(CO[C@H](CSC(C)(C)C)Cc2ccccc2)cc1-c1ccccc1C)C(=O)O [Example 994]"
  Label Class: "true (1)"
- Compound: "CSCC[C@H](NC(=O)c1ccc(CON=C(Cc2ccccc2)Cc2ccccc2)cc1-c1ccccc1C)C(=O)O [Example 888]"
  Label Class: "true (1)"

Let us examine a further case.
Input line: Quick check: does CSCC[C@H](NC(=O)c1ccc(COCc2cnc(-c3ccc(Cl)cc3)s2)cc1-c1ccccc1C)C(=O)[O-].[Li+] [Example 901] have % inhibition of farnesyltransferase greater than or equal to 70%?
Output line: true (1)

====

Study Target: protein farnesyltransferase (Rattus norvegicus, UniProt Q02293+Q04631)
Construct: Rat brain protein farnesyltransferase activity is measured; from tissue; host or cells: rat brain; purified according to Reiss et al., Cell 62:81-88 (1990), steps one through three
Test Method Notes: in vitro inhibition of protein farnesyltransferase (scintillation proximity assay, biotin-K Ras B fragment)
Assay type: biochemical
Run Parameters: at 1 × 10^-6 M
Measured Metric: % inhibition of farnesyltransferase (%)
Please give a number only; it is taken to be in %.

Consider the reported % inhibition of farnesyltransferase for these compounds:
- Smiles: "CSCC[C@H](NC(=O)c1ccc(/C=C/CC2CCCCC2)cc1-c1ccccc1C)C(=O)O"
  Study Target: "protein farnesyltransferase (Rattus norvegicus, UniProt Q02293+Q04631)"
  % inhibition of farnesyltransferase (%): 94
- Smiles: "CSCC[C@H](NC(=O)c1ccc(/C=C/c2ccc(Oc3ccccc3)nn2)cc1-c1ccccc1C)C(=O)O"
  Study Target: "protein farnesyltransferase (Rattus norvegicus, UniProt Q02293+Q04631)"
  % inhibition of farnesyltransferase (%): 89
- Smiles: "CSCC[C@H](NC(=O)c1ccc(COC2CCN(Cc3ccccc3)CC2)cc1-c1ccccc1C)C(=O)O"
  Study Target: "protein farnesyltransferase (Rattus norvegicus, UniProt Q02293+Q04631)"
  % inhibition of farnesyltransferase (%): 90

From here, focus on the item given below.
Input line: Reported % inhibition of farnesyltransferase for "CSCC[C@H](NC(=O)c1ccc(CN(C(C)C)C2(CC3CCCCC3)CC2)cc1-c1ccccc1C)C(=O)O" : what is it?
Output line: 91

====

compounds and their reported % inhibition of farnesyltransferase
Study Target: protein farnesyltransferase (Rattus norvegicus, UniProt Q02293+Q04631)
Construct: Rat brain protein farnesyltransferase activity is measured; from tissue; host or cells: rat brain; purified according to Reiss et al., Cell 62:81-88 (1990), steps one through three
Test Method Notes: in vitro inhibition of protein farnesyltransferase (scintillation proximity assay, biotin-K Ras B fragment)
Format: biochemical
Run Parameters: at 1 × 10^-6 M
Answer in %, number only, no unit symbol.

- Compound: "CSCC[C@H](NC(=O)c1ccc(OC/C=C/c2ccccc2)cc1-c1ccccc1C)C(=O)O"
  Result Unit: "%"
  % inhibition of farnesyltransferase: 91
- Compound: "CSCC[C@H](NC(=O)c1ccc(CN(C(C)C)C(C)(C)CC2CCCCC2)cc1-c1ccccc1C)C(=O)O"
  Result Unit: "%"
  % inhibition of farnesyltransferase: 98
- Compound: "CSCC[C@H](NC(=O)c1ccc(CCc2cccc(-c3ccccc3)c2)cc1-c1ccccc1C)C(=O)[O-].[Li+]"
  Result Unit: "%"
  % inhibition of farnesyltransferase: 94
- Compound: "CSCC[C@H](NC(=O)c1ccc(COCc2ccc3ccccc3c2)cc1-c1ccccc1C)C(=O)[O-].[Li+]"
  Result Unit: "%"
  % inhibition of farnesyltransferase: 98

Input line: Given "CSCC[C@H](NC(=O)c1ccc(CSc2nc(O)cc(Cc3ccccc3)n2)cc1-c1ccccc1C)C(=O)O" , state its recorded % inhibition of farnesyltransferase.
Output line: 84

Input line: // % inhibition of farnesyltransferase lookup, key: "CSCC[C@H](NC(=O)c1ccc(CNC(C)(C)Cc2ccccc2)cc1-c1ccccc1C)C(=O)O"
Output line: 82

Input line: Give the measured % inhibition of farnesyltransferase of CSCC[C@H](NC(=O)c1ccc(CNC(CC2CCCCC2)C(O)C(O)CC(C)C)cc1-c1ccccc1C)C(=O)O (some centres unmarked) .
Output line: 99

Input line: Which % inhibition of farnesyltransferase value belongs to "CSCC[C@H](NC(=O)c1ccc(CSCc2ccccc2)cc1-c1ccccc1C)C(=O)[O-].[Li+]" ?
Output line: 96

====

Study Target: protein farnesyltransferase (Rattus norvegicus, UniProt Q02293+Q04631)
Construct: Rat brain protein farnesyltransferase activity is measured; from tissue; host or cells: rat brain; purified according to Reiss et al., Cell 62:81-88 (1990), steps one through three
Test Method Notes: in vitro inhibition of protein farnesyltransferase (scintillation proximity assay, biotin-K Ras B fragment)
Type: biochemical
Run Parameters: at 1 × 10^-6 M
Assign t whenever % inhibition of farnesyltransferase does not fall below 90%; assign f whenever it does.

Some solved entries appear below for comparison.
- Smiles: "CSCC[C@H](NC(=O)c1ccc(COC2(c3ccccc3)CCN(C(=O)OC(C)(C)C)CC2)cc1-c1ccccc1C)C(=O)[O-].[Li+]"
  Label Class: "f"
- Smiles: "CSCC[C@H](NC(=O)c1ccc(COCc2ccccc2C)cc1-c1ccccc1C)C(=O)[O-].[Li+]"
  Label Class: "t"
- Smiles: "CSCC[C@H](NC(=O)c1cc(Cc2ccccc2)c(COCc2ccccc2)cc1-c1ccccc1C)C(=O)O"
  Label Class: "f"
- Smiles: "CCCCN(C)N(CCC1CCCCC1)Cc1ccc(C(=O)N[C@@H](CCS(C)(=O)=O)C(=O)O)c(-c2ccccc2C)c1"
  Label Class: "f"
- Smiles: "CSCC[C@H](NC(=O)c1cc(Cc2ccccc2)c(COCCCc2ccccc2)cc1-c1ccccc1C)C(=O)O"
  Label Class: "f"
- Smiles: "CSCC[C@H](NC(=O)c1ccc(CN(C2CC2)C(C)(C)Cc2ccccc2)cc1-c1ccccc1C)C(=O)O"
  Label Class: "t"

Input line: Reported % inhibition of farnesyltransferase reaches at least 90% for "CSCC[C@H](NC(=O)c1ccc(N2CC(=O)NNC2=O)cc1-c1ccccc1)C(=O)O" ?
Output line: f

Input line: Given the entry "CSCC[C@H](NC(=O)c1ccc(OCCCc2ccccc2)cc1-c1ccccc1C)C(=O)[O-].[Li+]" , answer whether its % inhibition of farnesyltransferase meets or surpasses 90%.
Output line: t

Input line: Please indicate if the recorded % inhibition of farnesyltransferase for "CSCC[C@H](NC(=O)c1ccc(OC/C=C(\C)CCC=C(C)C)cc1-c1ccccc1C)C(=O)O" meets or exceeds 90%.
Output line: t

Input line: Would you say "Cc1ccccc1-c1cc(CN(C2CC2)C(C)(C)CC2CCCCC2)ccc1C(=O)N[C@@H](CCS(C)(=O)=O)C(=O)O" shows % inhibition of farnesyltransferase at minimum 90%?
Output line: t

====

Below is a list of entries, each paired with its recorded % inhibition of farnesyltransferase value.
Study Target: protein farnesyltransferase (Rattus norvegicus, UniProt Q02293+Q04631)
Construct: Rat brain protein farnesyltransferase activity is measured; from tissue; host or cells: rat brain; purified according to Reiss et al., Cell 62:81-88 (1990), steps one through three
Test Method Notes: in vitro inhibition of protein farnesyltransferase (scintillation proximity assay, biotin-K Ras B fragment)
Format: biochemical
Run Parameters: at 1 × 10^-7 M
Procedure: The ability of the compounds of the invention to inhibit protein farnesyltransferase or protein geranylgeranyltransferase can be measured according to the method of Moores, et al., J. Biol. Chem. 266: 14603 (1991) or the method of Vogt, et al., J. Biol. Chem. 270:660-664 (1995). […] In addition, in vitro inhibition of protein farnesyltransferase may be measured by the following procedure. […] The % inhibition of protein farnesyltransferase was determined for representative compounds of the invention.
Give just the number in %; leave the unit off.

Example entries begin here.
- Smiles: "CSCC[C@H](NC(=O)c1ccc(CSCC2CCCCC2)cc1-c1ccccc1C)C(=O)[O-].[Li+]"
  % inhibition of farnesyltransferase, %: 96
- Smiles: "CSCC[C@H](NC(=O)c1ccc(COCc2ccccc2)cc1-c1ccccc1C)C(=O)NS(=O)(=O)c1ccccc1"
  % inhibition of farnesyltransferase, %: 90
- Smiles: "COc1cccc(-c2ccc(COCc3ccc(C(=O)N[C@@H](CCSC)C(=O)[O-])c(-c4ccccc4C)c3)o2)c1.[Li+]"
  % inhibition of farnesyltransferase, %: 88
- Smiles: "CSCC[C@H](NC(=O)c1ccc(COCc2ccc(-c3cccc(C(F)(F)F)c3)o2)cc1-c1ccccc1C)C(=O)[O-].[Li+]"
  % inhibition of farnesyltransferase, %: 91
- Smiles: "CSCC[C@H](NC(=O)c1ccc(COCc2ccc(-c3ccc(Cl)cc3)o2)cc1-c1ccccc1C)C(=O)O"
  % inhibition of farnesyltransferase, %: 97

Lab note: next molecule to report on.
Input line: Item under review: "CSCC[C@H](NC(=O)c1ccc(CSc2nc3ccccc3c(=O)[nH]2)cc1-c1ccccc1C)C(=O)O" . Reported % inhibition of farnesyltransferase?
Output line: 93

The measured values listed here are drawn from patent US6310095A.
